Property: pIC50; scope: individual binders
Target: T1, human GLP-1 receptor (human, UniProt P43220 24-463)
T1 construct: whole, on cells; Used as membrane preparations of the transfected hamster (BHK) cell line, not as whole cells; also called hGLP-1/BHK 467-12A membranes
Assay: SPA, displacement of 125I-GLP-1(7-36)NH2 from membranes with human GLP-1 receptor, 0.005% HSA
pIC50: −log10 of the molar value. Numbered stars: 1 amine (or outer) side, 2 acyl side, 3 side chain; on linkers, the order of the positions; unused ones are H or OH. Square brackets hold non-standard residues; d marks the D form. Side chains are listed from the residue outwards. Ends that are not written are not given here. * marks the point of attachment. 9‑(4-carboxyphenoxy)nonanoyl = O=C(O)c1ccc(OCCCCCCCCC(=O)*)cc1; 8‑(4-carboxyphenoxy)octanoyl = O=C(O)c1ccc(OCCCCCCCC(=O)*)cc1; Decanoyl(10-(4-HOOC-PhO)) = O=C(O)c1ccc(OCCCCCCCCCC(=O)*)cc1; γGlu = O=C(O)[C@H](CCC(=O)[*:2])N[*:1]; C14 diacid = O=C(O)CCCCCCCCCCCCC(=O)*; C12 diacid = O=C(O)CCCCCCCCCCC(=O)*; AEEA = NCCOCCOCC(=O)O; Aib = CC(C)(N)C(=O)O

Here is how some binders turned out for pIC50.
Record request: pIC50 value, item H[Aib]GGTFTSDVSSYLEGQAAK([AEEA-AEEA-γGlu-Decanoyl(10-(4-HOOC-PhO))])EFIAWLVRGRK([AEEA-AEEA-γGlu-Decanoyl(10-(4-HOOC-PhO))])
> 6.22

Record request: pIC50 value, item HXEGTFTSDVSSYLEGQAAKEFIAHLVQGRK (Aib at 8; Lys26 and Lys37 each acylated at the epsilon-amino group with 11-carboxyundecanoyl-gammaGlu-OEG-OEG (GLP-1(7-37) numbering, His = 7), also called Chem. 40)
> 6.22

Record request: pIC50 value, item HAEGTFTSDVSSYLEGQAAK([AEEA-AEEA-γGlu-C12 diacid])EFIAHLVQGRK([AEEA-AEEA-γGlu-C12 diacid]) (also called Chem. 54)
> 6.22

Record request: pIC50 value, item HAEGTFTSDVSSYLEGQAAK([γGlu-AEEA-AEEA-C14 diacid])EFIAWLVRGRK([γGlu-AEEA-AEEA-C14 diacid])
> 6.22

Record request: pIC50 value, item HAQGTFTSDVSSYLEGQAAK([AEEA-AEEA-γGlu-Decanoyl(10-(4-HOOC-PhO))])EFIAWLVRGRK([AEEA-AEEA-γGlu-Decanoyl(10-(4-HOOC-PhO))])
> 6.22

Record request: pIC50 value, item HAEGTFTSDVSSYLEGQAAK([AEEA-AEEA-γGlu-8‑(4-carboxyphenoxy)octanoyl])EFIAWLVRGRK([AEEA-AEEA-γGlu-8‑(4-carboxyphenoxy)octanoyl])
> 6.22

***
Record request: pIC50 value, item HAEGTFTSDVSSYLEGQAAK([AEEA-AEEA-γGlu-C14 diacid])EFIAHLVQGRK([AEEA-AEEA-γGlu-C14 diacid]) (also called Chem. 53)
> 6.22

Record request: pIC50 value, item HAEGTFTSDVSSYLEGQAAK([AEEA-AEEA-γGlu-9‑(4-carboxyphenoxy)nonanoyl])EFIAWLVRGRK([AEEA-AEEA-γGlu-9‑(4-carboxyphenoxy)nonanoyl])
> 6.22

These entries and their values trace back to patent US8648041.
